FYI, the data here is from paper PMC12133982.

# SYSTEM: HLA-B4601 (Homo sapiens, UniProt P01889, A329T/A93R/C349S/D201E/E100V/E187L/E204Q/E69M/E70A/I90K/K202T/N87E/R155S/R180W/S121R/S35A/S48A/V306I/V36M/Y140S)
# TEST_NAME: Competitive peptide binding assay, CIR-B4601
# MEASUREMENT_SETUP: read-out: Inhibition % of Cy5-reference peptide binding, CIR-B4601, 5μM peptide
Peptide text beside a SMILES is read from it.
MEASUREMENT_LABEL: inhibition at 5 µM (%)
The response must be a number in % with no trailing unit.

Examples from the recorded data:
MOLECULE	UNIT_SYMBOL	inhibition at 5 µM
CC[C@H](C)[C@H](NC(=O)[C@@H](NC(=O)[C@H](CCC(=O)O)NC(=O)[C@H](CCC(=O)O)NC(=O)[C@@H](N)Cc1c[nH]cn1)[C@@H](C)O)C(=O)N[C@@H](Cc1ccc(O)cc1)C(=O)N[C@@H](CC(N)=O)C(=O)N[C@@H](CC(C)C)C(=O)N[C@@H](CC(C)C)C(=O)O [Epitope Y199] (H-HEETIYNLL-OH; N-terminus and C-terminus assumed)	%	24.9
CSCC[C@H](NC(=O)[C@H](CCSC)NC(=O)[C@H](CO)NC(=O)[C@H](Cc1ccccc1)NC(=O)[C@H](Cc1c[nH]cn1)NC(=O)[C@H](CCCCN)NC(=O)[C@H](CCCNC(=N)N)NC(=O)[C@H](CC(C)C)NC(=O)[C@@H](N)Cc1ccc(O)cc1)C(=O)O [Epitope Y28] (H-YLRKHFSMM-OH; N-terminus and C-terminus assumed)	%	85.7
CC(C)C[C@H](NC(=O)[C@H](CC(C)C)NC(=O)[C@H](CC(C)C)NC(=O)[C@H](CC(N)=O)NC(=O)[C@H](CO)NC(=O)[C@H](CS)NC(=O)[C@H](CCC(=O)O)NC(=O)[C@@H](N)[C@@H](C)O)C(=O)N[C@@H](CCC(N)=O)C(=O)N[C@@H](Cc1ccc(O)cc1)C(=O)O [Epitope Y231] (H-TECSNLLLQY-OH; N-terminus and C-terminus assumed)	%	73.8
CC[C@H](C)[C@H](NC(=O)[C@H](CCC(N)=O)NC(=O)[C@@H](N)CC(C)C)C(=O)N1CCC[C@H]1C(=O)N[C@@H](Cc1ccccc1)C(=O)N[C@@H](C)C(=O)N[C@@H](CCSC)C(=O)N[C@@H](CCC(N)=O)C(=O)N[C@@H](CCSC)C(=O)O [Epitope Y81] (H-LQIPFAMQM-OH; N-terminus and C-terminus assumed)	%	9.21
C[C@H](NC(=O)[C@H](CO)NC(=O)[C@H](CO)NC(=O)[C@@H](N)Cc1ccc(O)cc1)C(=O)N[C@@H](CC(N)=O)C(=O)N[C@@H](CC(N)=O)C(=O)N[C@@H](CS)C(=O)N[C@H](C(=O)N[C@@H](Cc1ccccc1)C(=O)O)[C@@H](C)O [Epitope Y247] (H-YSSANNCTF-OH; N-terminus and C-terminus assumed)	%	44.6

q: Endpoint output: inhibition at 5 µM of CC[C@H](C)[C@H](NC(=O)[C@H](C)NC(=O)[C@H](C)NC(=O)[C@H](CC(N)=O)NC(=O)[C@H](CC(N)=O)NC(=O)[C@H](C)NC(=O)[C@@H]1CCCN1C(=O)[C@@H](N)CC(N)=O)C(=O)N[C@H](C(=O)O)C(C)C [Epitope Y18] (H-NPANNAAIV-OH; N-terminus and C-terminus assumed) . Value?
a: 12.5

q: Endpoint output: inhibition at 5 µM of CC[C@H](C)[C@H](NC(=O)[C@H](C)NC(=O)CNC(=O)[C@@H](NC(=O)[C@H](Cc1ccc(O)cc1)NC(=O)[C@@H](NC(=O)[C@@H](N)CC(C)C)[C@@H](C)O)[C@@H](C)O)C(=O)N[C@@H](CCCCN)C(=O)N[C@@H](CC(C)C)C(=O)O [Epitope Y243] (H-LTYTGAIKL-OH; N-terminus and C-terminus assumed) . Value?
a: 77.3

###

Here, each record is paired with measured IC50 data.
# SYSTEM: HLA-B1502 (Homo sapiens, UniProt P01889, A329T/A93T/A95T/C349S/D201E/D98Y/E187L/E204Q/E69M/E70A/H137Y/K202T/L119I/Q94N/R155S/R180L/S121R/S35A/S48A/T118I/V306I/V36M/Y140S/Y91S)
# TEST_NAME: Competitive peptide binding assay, CIR-B1502
# MEASUREMENT_SETUP: HMy2.CIR-B1502 cells, reference Cy5-[…], class from inhibition at 5 and 15 μM, flow cytometry MFI; read-out: Binding affinity with HLA-B1502
Peptide text beside a SMILES is read from it.

q: Endpoint output: IC50 of CC[C@H](C)[C@H](NC(=O)[C@H](CC(=O)O)NC(=O)[C@H](CCCNC(=N)N)NC(=O)CNC(=O)[C@H](Cc1ccccc1)NC(=O)[C@H](CCC(N)=O)NC(=O)[C@H](CCC(N)=O)NC(=O)[C@H](Cc1ccccc1)NC(=O)[C@@H]1CCCN1C(=O)[C@@H](N)CC(C)C)C(=O)O [Epitope Y282] (H-LPFQQFGRDI-OH; N-terminus and C-terminus assumed) . Value?
a: > 15 µM

q: Endpoint output: IC50 of CC[C@H](C)[C@H](NC(=O)CNC(=O)[C@H](CC(=O)O)NC(=O)[C@H](CCCCN)NC(=O)[C@H](CC(N)=O)NC(=O)[C@H](C)NC(=O)CNC(=O)[C@H](Cc1ccc(O)cc1)NC(=O)[C@@H]1CCCN1C(=O)[C@@H](N)CC(C)C)C(=O)O [Epitope Y273] (H-LPYGANKDGI-OH; N-terminus and C-terminus assumed) . Value?
a: 5 to 15 µM

q: Endpoint output: IC50 of CSCC[C@H](NC(=O)[C@H](C)NC(=O)[C@@H](N)Cc1ccccc1)C(=O)N[C@@H](CCC(N)=O)C(=O)N[C@@H](CCSC)C(=O)N[C@@H](C)C(=O)N[C@@H](Cc1ccc(O)cc1)C(=O)N[C@@H](CCCNC(=N)N)C(=O)N[C@@H](Cc1ccccc1)C(=O)O [Epitope Y189] . Value?
a: > 15 µM

q: Endpoint output: IC50 of CC[C@H](C)[C@H](NC(=O)[C@@H](NC(=O)[C@H](CC(C)C)NC(=O)[C@H](CCC(=O)O)NC(=O)[C@H](CO)NC(=O)[C@H](CCC(=O)O)NC(=O)[C@@H](N)CC(C)C)C(C)C)C(=O)NCC(=O)N[C@@H](C)C(=O)N[C@H](C(=O)O)C(C)C [Epitope Y211] (H-LESELVIGAV-OH; N-terminus and C-terminus assumed) . Value?
a: > 15 µM

###

Here, each record is paired with measured IC50 data.
# SYSTEM: HLA-B1502 (Homo sapiens, UniProt P01889, A329T/A93T/A95T/C349S/D201E/D98Y/E187L/E204Q/E69M/E70A/H137Y/K202T/L119I/Q94N/R155S/R180L/S121R/S35A/S48A/T118I/V306I/V36M/Y140S/Y91S)
# TEST_NAME: Competitive peptide binding assay, CIR-B1502
# MEASUREMENT_SETUP: HMy2.CIR-B1502 cells, reference Cy5-[…], class from inhibition at 5 and 15 μM, flow cytometry MFI; read-out: Binding affinity with HLA-B1502
Peptide text beside a SMILES is read from it.

Examples from the recorded data:
MOLECULE	RESULT
CC[C@H](C)[C@H](NC(=O)[C@H](CC(C)C)NC(=O)[C@H](CCC(N)=O)NC(=O)[C@H](CCC(N)=O)NC(=O)[C@@H](NC(=O)[C@@H](NC(=O)[C@H](Cc1ccc(O)cc1)NC(=O)[C@@H](NC(=O)[C@H](CCC(N)=O)NC(=O)[C@@H](N)CC(C)C)[C@@H](C)O)C(C)C)[C@@H](C)O)C(=O)O [Epitope Y118] (H-LQTYVTQQLI-OH; N-terminus and C-terminus assumed)	> 15 µM
CC(C)C[C@H](N)C(=O)N[C@H](C(=O)N[C@@H](CCCCN)C(=O)N1CCC[C@H]1C(=O)N[C@@H](CO)C(=O)N[C@@H](Cc1ccccc1)C(=O)N[C@@H](Cc1ccc(O)cc1)C(=O)N[C@H](C(=O)N[C@@H](Cc1ccc(O)cc1)C(=O)O)C(C)C)C(C)C [Epitope Y125] (H-LVKPSFYVY-OH; N-terminus and C-terminus assumed)	> 15 µM
CC[C@H](C)[C@H](N)C(=O)N[C@@H](C)C(=O)N[C@@H](CC(N)=O)C(=O)N[C@@H](CCC(N)=O)C(=O)N[C@@H](Cc1ccccc1)C(=O)N[C@@H](CC(N)=O)C(=O)N[C@@H](CO)C(=O)N[C@@H](C)C(=O)N[C@H](C(=O)O)[C@@H](C)CC [Epitope Y283] (H-IANQFNSAI-OH; N-terminus and C-terminus assumed)	> 15 µM
CC[C@H](C)[C@H](NC(=O)[C@H](CC(C)C)NC(=O)[C@@H](N)CCC(=O)O)C(=O)N[C@@H](CCCNC(=N)N)C(=O)N[C@@H](CCC(N)=O)C(=O)NCC(=O)N[C@H](C(=O)N[C@@H](CC(=O)O)C(=O)N[C@@H](Cc1ccc(O)cc1)C(=O)O)[C@@H](C)O [Epitope Y162] (H-ELIRQGTDY-OH; N-terminus and C-terminus assumed)	5 to 15 µM
CC[C@H](C)[C@H](N)C(=O)N[C@@H](C)C(=O)N[C@@H](CCSC)C(=O)N[C@@H](C)C(=O)N[C@@H](CS)C(=O)N[C@@H](CC(C)C)C(=O)N[C@H](C(=O)NCC(=O)N[C@@H](CC(C)C)C(=O)O)C(C)C [Epitope Y253] (H-IAMACLVGL-OH; N-terminus and C-terminus assumed)	> 15 µM

Then this molecule:
q: Endpoint output: IC50 of CC(C)[C@H](NC(=O)CNC(=O)[C@H](Cc1c[nH]cn1)NC(=O)[C@@H]1CCCN1C(=O)[C@H](C)NC(=O)[C@H](CO)NC(=O)[C@@H](N)CCC(N)=O)C(=O)N[C@H](C(=O)N[C@@H](Cc1ccccc1)C(=O)O)C(C)C [Epitope Y146] (H-QSAPHGVVF-OH; N-terminus and C-terminus assumed) . Value?
a: 5 to 15 µM
